# Tested on: SW-620 colon
# protocolDescription: NCI tumour cell line growth inhibition, 48 h
observationType: TGI

Example results:
compound | TGI
C[C@@]1(C(=O)O)CCC[C@]2(C)C1CC[C@@]13C[C@@](O)(CC[C@]12O)[C@@]1(CO1)C3 (stereo not given in full) | > 100 µM
CSC(=NC#N)S/C=C/C(=O)c1ccccc1 | 43.3 µM
CC(=O)Oc1cc(S(=O)(=O)Nc2n[nH]c(Nc3ccc(C)cc3)n2)c(S)cc1Cl | > 100 µM
NC(N)=NS(=O)(=O)c1ccc(N/N=C2/CCOC2=O)cc1 | > 100 µM
Oc1ccc(Nc2ccc3ccccc3c2)cc1 | 19.5 µM
COC(=O)C1CCN(C(=O)OC(C)(C)C)CC1 | > 100 µM

The reported value for "NS(=O)(=O)c1nnc(NC(=O)C23CC4CC(CC(C4)C2)C3)s1" in terms of TGI is > 100 µM

The reported value for O=C(CC1(O)C(=O)N(Cc2ccccc2)c2ccc(Cl)cc21)c1ccc(C(=O)NCC2CCC3(CC2)OOC2(CCCCC2)OO3)cc1 (stereo not given) in terms of TGI is 5.88 µM

The reported value for "CCCNC(=S)N/N=C(\C)c1ccc(S(=O)(=O)N(C)c2ccccc2)cc1" in terms of TGI is > 100 µM

The reported value for "COC(=O)c1c(C(=O)OC)c2ccccn2c1-c1cc(OC)c(Br)c(=O)o1" in terms of TGI is > 100 µM

---

# Test system: MCF7 breast
# protocolDescription: NCI tumour cell line growth inhibition, 48 h
observationType: TGI (µM)
# number only, unit µM dropped from output

querySmiles | TGI [µM]
O=C(/C=C/c1ccc(Cl)cc1)c1ccccc(=O)c1O | 19.8

Now look at this entry.
The reported value for "CC/C=C\C[C@H](F)C/C=C1/C(=O)C=C[C@@H]1C/C=C\CCCC(=O)OC" in terms of TGI is 7.05

---

# Tested on: OVCAR-8 ovarian
# protocolDescription: NCI tumour cell line growth inhibition, 48 h
Listed here: items and their measured TGI.

Example results:
compound | measValue
COc1ccc(/C(C)=N/NC(=O)c2ccncc2)c(OC)c1 | > 10 µM
COC(=O)c1ccc2c(c1)C(=O)c1c-2n(CCCCl)c(=O)c2cc([N+](=O)[O-])ccc12 | > 100 µM
CCOC(=O)c1cc(-n2nnc3ccccc32)cn1C | > 10 µM
CC(=O)/C(=C/c1ccccc1)C(=O)CC(C)C | 53 µM
O=C1/C(=C/c2ccccc2)CN(C(=O)C(Cl)Cl)C/C1=C\c1ccccc1 | 1.68 µM
Cc1nc2c(c(N3CCCc4ccccc43)n1)CCC2 | > 100 µM
COc1cccc(C23CCCC(C2)NCC3Br)c1OC (configuration not stated) | > 100 µM
COC(=O)C1=C(O)[C@H](C(=O)OC)C2(O)C(C(=O)OC)[C@H](c3ccc(OC(=O)C(C)c4ccccc4)cc3)C[C@@H]1[C@@H]2C(=O)OC (some centres not stated) | > 50 µM
CC1(c2sccc2Cl)CC(c2sccc2Cl)=C(C#N)C(=C(C#N)C#N)N1 (configuration not stated) | 39 µM
CCOC(=O)/C=C(\C(=O)OCC)n1ccc(=O)n(Cc2cnnn2CCCCOC(C)=O)c1=O | 13.9 µM

Sample "COc1ccc2c3c(Nc4cccc(/C(C)=N\O)c4)[nH]c4ccccc4c-3c(N=O)c2c1" , system: OVCAR-8 ovarian. Its TGI is > 100 µM

Sample "N#Cc1c(NCc2ccccc2)nc(NCc2ccccc2)c(C#N)c1-c1ccc(O)cc1" , system: OVCAR-8 ovarian. Its TGI is > 100 µM

Sample "NNC(=O)CC(=O)Nc1cccc(Cl)c1" , system: OVCAR-8 ovarian. Its TGI is > 100 µM

Sample "COC(=O)c1c(C(=O)OC)c2ccccn2c1-c1cc(OC)c(Br)c(=O)o1" , system: OVCAR-8 ovarian. Its TGI is > 100 µM

Hello, the source for this data is PubChem BioAssay (NCI), in case you need it.
